tested on: U2OS; assay: Multiplex assay against U2OS; type: toxicity, cell-based; conditions: human, 12 h, 10 µM, compound concentration 10 uM, replicate 1
measurement-kind: Population Fragmented Nuclei (%)
One number for each entry, in %.

structure-notation	Population Fragmented Nuclei (%)
O=c1cc(N2CCOCC2)oc2c(-c3cccc4c3sc3ccccc34)cccc12	20
CC(C)(C)NC[C@H](O)COc1nsnc1N1CCOCC1	8
COc1ccc(-c2ccc3ncc4c(c3c2)n(-c2ccc(N3CCNCC3)c(C(F)(F)F)c2)c(=O)n4C)cn1.O=C(O)/C=C\C(=O)O	33
CNC(=O)Nc1ccc2c(c1)[C@@]1(CC2)OC(=O)N(CC(=O)N(Cc2ccc(F)cc2)[C@@H](C)C(F)(F)F)C1=O	3

// below: Population Fragmented Nuclei (%) requested for another compound
Recorded Population Fragmented Nuclei (%) (compound C=CC(=O)Nc1ccc2[nH]c(=O)n(C3CCN(Cc4ccc(-c5nc6cc[nH]c(=O)c6cc5-c5ccccc5)cc4)CC3)c2c1 ): 2

---

system: U2OS; assay: Multiplex assay against U2OS; format: toxicity, cell-based; conditions: human, 48 h, 1 µM, compound concentration 1 uM, replicate 1
Entry flag: MET if Population Mitochondria Different-Phenotype (%) reaches 30%; NOT MET if it does not.

// below: answered compounds
compound	class-assignment
CC(C)Oc1ccccc1C(=O)Nc1ccccc1C(=O)Nc1cccc(S(=O)(=O)C(F)(F)F)c1	MET
COc1ccccc1CN[C@H]1C2CCN(CC2)[C@H]1C(c1ccccc1)c1ccccc1 [CP-96345]	NOT MET

Task item: Given the entry COc1cc2ncn(-c3cc(OCc4ccccc4C(F)(F)F)c(C(N)=O)s3)c2cc1OC [GW843682X] , answer whether its Population Mitochondria Different-Phenotype (%) meets or surpasses 30%.
Reply: MET

Task item: In plain terms: is recorded Population Mitochondria Different-Phenotype (%) at least 30% for CCc1ccc(OCc2ccccc2C(=O)Nc2ccc3nc(C)cc(N)c3c2)cc1.Cl ?
Reply: MET

Task item: Kindly determine if Population Mitochondria Different-Phenotype (%) recorded for CC(C)NC(=O)N1CC[C@H](NC2=Nc3cc(F)ccc3N(CC(F)F)c3ccc(Cl)cc32)C1 is above or exactly 30%.
Reply: NOT MET

---

system: HEK-293T; assay: Multiplex assay against HEK293T; type: toxicity, cell-based; details: human, 24 h, 1 µM, compound concentration 1 uM, replicate 1
measurement-kind: Population Apoptotic (%)
Give bare numbers, in %.

molecule	subject-of-test	Population Apoptotic (%)
O=C(c1cc2c(cc1F)OC(c1ccc(F)cc1)(c1ccc(Cl)cc1Cl)O2)N1CCOCC1 (stereo not given)	HEK-293T	48
Cl.O=C(O)c1cc(-c2ccc(C3CCNCC3)cc2)c2ccc(-c3ccc(C(F)(F)F)cc3)cc2c1	HEK-293T	43
COc1ccc(-c2ccc3ncc4c(c3c2)n(-c2ccc(N3CCNCC3)c(C(F)(F)F)c2)c(=O)n4C)cn1.O=C(O)/C=C\C(=O)O	HEK-293T	70

For each listed entry, give its Population Apoptotic (%).
1. CC1=C(C(=O)Nc2cc3cn[nH]c3cc2F)C(c2ccc(C(F)(F)F)cc2)CC(=O)N1 (stereo not given)
2. CCCSc1nc(N[C@@H]2C[C@H]2c2ccc(F)c(F)c2)c2nnn([C@@H]3C[C@H](OCCO)[C@@H](O)[C@H]3O)c2n1

Reply:
41
46

Dear reader, for each entry below, please note its Population Apoptotic (%).
1. Cc1ccc2c(c1)c1c(n2CCc2ccc(C)nc2)CCN(C)C1 [LATREPIRDINE]
2. CC(C)Oc1ccccc1C(=O)Nc1ccccc1C(=O)Nc1cccc(S(=O)(=O)C(F)(F)F)c1

Reply:
[55, 64]

Hey, quick one: what's Population Apoptotic (%) for each of these?
1. C[C@]12CC[C@@H]3c4ccc(O)cc4CC[C@H]3[C@@H]1CC[C@@H]2O
2. Cc1ccc(C)c(Oc2ccncc2C(=O)N2CCN(C3CC3)c3ccccc32)c1
3. Cc1cccc(CN2CCN(C(c3ccccc3)c3ccc(Cl)cc3)CC2)c1.Cl.Cl (stereo not given)
4. CN1CCN(Cc2ccc(Nc3ncc(Cl)c(Nc4ccccc4S(=O)(=O)N(C)C)n3)cc2)CC1
5. COc1cc2ncn(-c3cc(OCc4ccccc4C(F)(F)F)c(C(N)=O)s3)c2cc1OC [GW843682X]
6. COC(=O)C1=C(C)NC(C)=C(C(=O)OCCCN2CCC(c3ccccc3)(c3ccccc3)CC2)[C@H]1c1cccc([N+](=O)[O-])c1

Reply:
1. 37
2. 46
3. 51
4. 53
5. 56
6. 86

---

system: HEK-293T; test: Multiplex assay against HEK293T; format: toxicity, cell-based; details: human, 48 h, 10 µM, compound concentration 10 uM, replicate 1
Note to self: Population Membrane Permeable-Phenotype (%) under 3% means label 1, ties and anything higher get label 0.

compound	class-assignment
CN1CCN(Cc2ccc(Nc3ncc(Cl)c(Nc4ccccc4S(=O)(=O)N(C)C)n3)cc2)CC1 [DUBERMATINIB]	label 1
CCCSc1nc(N[C@@H]2C[C@H]2c2ccc(F)c(F)c2)c2nnn([C@@H]3C[C@H](OCCO)[C@@H](O)[C@H]3O)c2n1 [TICAGRELOR]	label 0
CC(C)NC(=O)N1CC[C@H](NC2=Nc3cc(F)ccc3N(CC(F)F)c3ccc(Cl)cc32)C1	label 0

Task item: Problem: For the compound O=C(c1cc2c(cc1F)OC(c1ccc(F)cc1)(c1ccc(Cl)cc1Cl)O2)N1CCOCC1 (stereo not drawn) , is Population Membrane Permeable-Phenotype (%) under 3%?
Reply: label 0

Task item: Is Population Membrane Permeable-Phenotype (%) of COc1cc(Nc2nccc(-c3cnn4nc(OC)ccc34)n2)cc(C(F)(F)F)c1 strictly below 3%?
Reply: label 1

Task item: Lab log: compare recorded Population Membrane Permeable-Phenotype (%) with 3%; is it strictly lower for O=c1cc(N2CCOCC2)oc2c(-c3cccc4c3sc3ccccc34)cccc12 ?
Reply: label 1

Task item: Please indicate whether the reported Population Membrane Permeable-Phenotype (%) of CC(C)c1noc(N2CCC(COc3ccc(-c4ccc(S(C)(=O)=O)cc4)nc3)CC2)n1 [GSK-1292263] is strictly below 3%.
Reply: label 0

Task item: Determine whether this compound shows Population Membrane Permeable-Phenotype (%) lower than 3% (ties excluded): CCOC(=O)Nc1cc(-c2ccc(C)c(NS(C)(=O)=O)c2)nn2c(C)nnc12
Reply: label 1

Task item: is_below(Population Membrane Permeable-Phenotype (%), 3%) for CNC(=O)Nc1ccc(-c2nc(N3CC4CCC(C3)O4)c3cnn(C4CCC5(CC4)OCCO5)c3n2)cc1 ?
Reply: label 0

Task item: Below 3% on Population Membrane Permeable-Phenotype (%)? Entry CCc1nn(CCCN2CCN(c3cccc(Cl)c3)CC2)c(=O)n1CCOc1ccccc1.Cl [NEFAZODONE HYDROCHLORIDE]
Reply: label 1

Task item: Decide: Population Membrane Permeable-Phenotype (%) of Cl.O=C(O)c1cc(-c2ccc(C3CCNCC3)cc2)c2ccc(-c3ccc(C(F)(F)F)cc3)cc2c1 strictly below 3%?
Reply: label 1

Task item: Strictly below 3%: is that where Population Membrane Permeable-Phenotype (%) of C#Cc1cccc(Nc2ncnc3cc(OCCOC)c(OCCOC)cc23)c1 [ERLOTINIB] sits?
Reply: label 1

Task item: Is Population Membrane Permeable-Phenotype (%) strictly under 3% for the entry COc1ccccc1CN[C@H]1C2CCN(CC2)[C@H]1C(c1ccccc1)c1ccccc1 [CP-96345] ?
Reply: label 1

Task item: Input COC(=O)C1=C(C)NC(C)=C(C(=O)OCCCN2CCC(c3ccccc3)(c3ccccc3)CC2)[C@H]1c1cccc([N+](=O)[O-])c1 [NIGULDIPINE] ; condition: Population Membrane Permeable-Phenotype (%) strictly below 3%. Does it hold?
Reply: label 0

Task item: Confirm or reject: Population Membrane Permeable-Phenotype (%) of Cc1cccc(CN2CCN(C(c3ccccc3)c3ccc(Cl)cc3)CC2)c1.Cl.Cl (stereo not drawn) lies strictly below 3%
Reply: label 1

Task item: Say whether its Population Membrane Permeable-Phenotype (%) is strictly beneath 3%. Entry: CC(C)(C)NC[C@H](O)COc1nsnc1N1CCOCC1 [TIMOLOL]
Reply: label 1

---

tested on: U2OS; assay: Multiplex assay against U2OS; format: toxicity, cell-based; conditions: human, 24 h, 1 µM, compound concentration 1 uM, replicate 2
measurement-kind: Population Hoechst High Intensity Objects (%)
Numbers only, in %.

compound	experimental-result
C[C@]12CC[C@@H]3c4ccc(O)cc4CC[C@H]3[C@@H]1CC[C@@H]2O	3
O=c1cc(N2CCOCC2)oc2c(-c3cccc4c3sc3ccccc34)cccc12	6
COc1cc2ncn(-c3cc(OCc4ccccc4C(F)(F)F)c(C(N)=O)s3)c2cc1OC [GW843682X]	5
Cc1cccc(CN2CCN(C(c3ccccc3)c3ccc(Cl)cc3)CC2)c1.Cl.Cl (centres undefined)	10

// for each compound below, give its Population Hoechst High Intensity Objects (%)
1. Cc1nc(N2CC[C@H](O)C2)ncc1-c1cc(C(F)(F)F)cc2[nH]ncc12
2. CC(C)(C)NC[C@H](O)COc1nsnc1N1CCOCC1
3. CC(C)CC(=O)Nc1[nH]nc2c1CN(C(=O)C1CCN(C)CC1)C2(C)C

Reply:
[6, 5, 2]

Could I get Population Hoechst High Intensity Objects (%) for every one of these entries?
1. C=CC(=O)Nc1cccc(Oc2nc(Nc3ccc(N4CCN(C)CC4)cc3OC)ncc2Cl)c1
2. CC(C)Oc1ccccc1C(=O)Nc1ccccc1C(=O)Nc1cccc(S(=O)(=O)C(F)(F)F)c1

Reply:
1: 14; 2: 7
